Origin of the recorded values: PubChem BioAssay AID1439

Field: binding response (% of control). Provide a value for each of the molecules that follow.
- tested on: Guanine nucleotide-binding protein G(o) subunit alpha (Homo sapiens)
- experimental protocol: compounds changing RGS7 association with Galphao – biochemical, multiplexed bead flow cytometry, primary screen (AID 1439);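 further: fluorescent Galphao held in activated GDP-AlF4 state binding bead-coupled RGS7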
- measurement parameters: at 10 µM, actives lie on both sides
The campaign covered roughly 220,000 compounds. About 770 (0.35%) were called active. Inconclusive results (about 15%) are left out. Only a selection was taken, and actives are over-represented in it overall.
Give just the numeric value; % need not be written.

Entry under test: C=CCn1c(=NC(=O)c2cccs2)sc2cc(NC(C)=O)ccc21 . Its binding response (% of control) was 152

Entry under test: C=CCn1c(=NC(=O)c2ccc(S(=O)(=O)N3CCCC3)cc2)sc2cc(NC(C)=O)ccc21 . Its binding response (% of control) was 91.7

Entry under test: CCOC(=O)C1=NOC(Cn2cc(C(C)=O)c(=O)[nH]c2=O)C1 (stereo not given) . Its binding response (% of control) was 100

Entry under test: CC(=O)Nc1ccc(/C=N/NC(=O)c2cccs2)cc1 . Its binding response (% of control) was 99.9

Entry under test: COC(=O)CNC(=O)c1ccc(OC2CCN(C(=O)C3CC3)CC2)cc1 . Its binding response (% of control) was 105
